Molecular target: P2X3 receptor (Canis lupus)
Construct: gene P2RX3; deletion of five first residues in the N-terminal region and the 33 last residues in the C-terminal region; homotrimer
Sequence (A0A8I3S575 6-364): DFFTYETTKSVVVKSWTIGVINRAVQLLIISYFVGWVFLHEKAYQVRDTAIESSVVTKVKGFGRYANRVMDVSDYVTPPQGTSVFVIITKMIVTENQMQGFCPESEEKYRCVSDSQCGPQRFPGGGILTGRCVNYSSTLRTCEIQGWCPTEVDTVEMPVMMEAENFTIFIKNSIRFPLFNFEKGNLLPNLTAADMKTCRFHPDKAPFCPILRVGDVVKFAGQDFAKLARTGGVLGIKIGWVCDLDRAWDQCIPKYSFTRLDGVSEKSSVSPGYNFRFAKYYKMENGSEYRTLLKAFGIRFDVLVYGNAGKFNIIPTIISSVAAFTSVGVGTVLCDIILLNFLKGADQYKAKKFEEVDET
Experiment: MST Kd; cryo-EM structure of the P2X3–ATP complex
Assay type: binding
readoutType: Kd (nM)
Kindly provide the numeric value in nM only, without the unit symbol.

Quick note, Kd for Nc1ncnc2c1ncn2[C@@H]1O[C@H](COP(=O)(O)OP(=O)(O)OP(=O)(O)O)[C@@H](O)[C@H]1O landed at 2000

====

Target: P2X3 receptor (Canis lupus)
Construct: gene P2RX3; deletion of five first residues in the N-terminal region and the 33 last residues in the C-terminal region; homotrimer
Test: ITC Kd; cryo-EM structure of the complex in peptidisc; also calcium influx IC50 […] in cells
Format: binding
readoutType: Kd (µM)
The reply should contain only the number, in µM.

Reported Kd (P2X3 receptor (Canis lupus)) for entry CNC(=O)c1cc(F)c(-c2nc3cc(C)ccn3c2C[C@H]2CN(C(=O)OC)CCO2)c(F)c1 [camlipixant] is 0.1
